# SUBJECT_OF_TEST: T1, cell-bound CD73 (human, UniProt P21589 27-549)
# T1 sequence (looked up): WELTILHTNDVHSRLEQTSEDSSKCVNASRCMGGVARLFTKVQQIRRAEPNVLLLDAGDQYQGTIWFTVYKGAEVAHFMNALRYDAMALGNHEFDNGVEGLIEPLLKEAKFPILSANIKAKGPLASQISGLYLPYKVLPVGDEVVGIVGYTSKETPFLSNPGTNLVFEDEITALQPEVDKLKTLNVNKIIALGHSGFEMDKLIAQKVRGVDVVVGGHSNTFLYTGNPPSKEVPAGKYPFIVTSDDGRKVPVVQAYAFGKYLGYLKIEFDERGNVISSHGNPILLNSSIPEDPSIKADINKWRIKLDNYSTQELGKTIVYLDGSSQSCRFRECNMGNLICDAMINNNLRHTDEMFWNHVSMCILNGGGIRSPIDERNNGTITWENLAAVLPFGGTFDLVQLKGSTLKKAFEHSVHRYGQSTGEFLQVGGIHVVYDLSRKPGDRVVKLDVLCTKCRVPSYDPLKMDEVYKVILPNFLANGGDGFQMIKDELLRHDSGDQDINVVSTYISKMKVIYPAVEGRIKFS
# MEASUREMENT_DESCRIPTION: cell-based or functional assay
Give measured % of max. adenosine inhibition, washed Colo-201 cells for each item. Keep answers brief.
Numbers only, in %.

Completed entries (count: 3):
B2 (antibody, human IgG1, kappa, L234A L235A, V domains shown, Humanized monoclonal antibody; also called anti-CD73 antibody B2) VH: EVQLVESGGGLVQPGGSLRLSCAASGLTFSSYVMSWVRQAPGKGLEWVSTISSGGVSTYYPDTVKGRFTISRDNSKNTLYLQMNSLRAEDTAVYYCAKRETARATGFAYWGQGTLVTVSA VL: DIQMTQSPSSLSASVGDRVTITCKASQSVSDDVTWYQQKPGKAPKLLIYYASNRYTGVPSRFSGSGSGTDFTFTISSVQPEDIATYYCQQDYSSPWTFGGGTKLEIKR: 70
C3 (antibody, human IgG1, kappa, L234A L235A, V domains shown, Humanized monoclonal antibody; also called anti-CD73 antibody C3) VH: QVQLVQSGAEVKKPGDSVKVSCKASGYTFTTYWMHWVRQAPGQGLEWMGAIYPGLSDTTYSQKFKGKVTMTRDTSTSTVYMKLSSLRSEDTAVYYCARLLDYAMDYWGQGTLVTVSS VL: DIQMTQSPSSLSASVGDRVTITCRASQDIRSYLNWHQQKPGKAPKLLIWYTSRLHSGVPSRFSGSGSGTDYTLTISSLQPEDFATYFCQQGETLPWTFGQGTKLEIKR: 81
C1 (antibody, human IgG1, kappa, L234A L235A, V domains shown, Humanized monoclonal antibody; also called anti-CD73 antibody C1) VH: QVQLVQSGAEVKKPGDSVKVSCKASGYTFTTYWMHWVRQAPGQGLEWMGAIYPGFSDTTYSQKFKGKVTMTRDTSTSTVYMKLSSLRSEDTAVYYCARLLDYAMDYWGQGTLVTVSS VL: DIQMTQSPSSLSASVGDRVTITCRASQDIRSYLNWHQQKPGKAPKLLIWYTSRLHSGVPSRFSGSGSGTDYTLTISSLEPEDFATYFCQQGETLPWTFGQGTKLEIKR: 79

Go through the items and report each one's % of max. adenosine inhibition, washed Colo-201 cells.
1. C2 (antibody, human IgG1, kappa, L234A L235A, V domains shown, Humanized monoclonal antibody; also called anti-CD73 antibody C2) VH: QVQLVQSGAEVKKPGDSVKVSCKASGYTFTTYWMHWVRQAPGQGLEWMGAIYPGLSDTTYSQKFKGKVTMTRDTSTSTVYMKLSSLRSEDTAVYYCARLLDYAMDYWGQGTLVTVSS VL: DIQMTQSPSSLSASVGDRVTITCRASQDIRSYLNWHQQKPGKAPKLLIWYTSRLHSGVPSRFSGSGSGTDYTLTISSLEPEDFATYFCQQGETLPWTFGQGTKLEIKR
2. C4 (antibody, human IgG1, kappa, L234A L235A, V domains shown, Humanized monoclonal antibody; also called C04; inventive anti-CD73 antibody C4) VH: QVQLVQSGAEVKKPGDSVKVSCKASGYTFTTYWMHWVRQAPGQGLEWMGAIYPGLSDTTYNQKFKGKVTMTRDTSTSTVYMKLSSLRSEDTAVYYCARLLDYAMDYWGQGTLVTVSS VL: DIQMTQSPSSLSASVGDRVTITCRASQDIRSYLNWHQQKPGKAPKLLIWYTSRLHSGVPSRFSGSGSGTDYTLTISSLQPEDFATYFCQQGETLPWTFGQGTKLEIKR
3. C5 (antibody, human IgG1, kappa, L234A L235A, V domains shown, Humanized monoclonal antibody; also called anti-CD73 antibody C5) VH: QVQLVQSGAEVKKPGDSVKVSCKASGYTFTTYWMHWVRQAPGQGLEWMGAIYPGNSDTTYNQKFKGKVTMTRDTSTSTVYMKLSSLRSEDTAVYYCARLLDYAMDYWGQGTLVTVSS VL: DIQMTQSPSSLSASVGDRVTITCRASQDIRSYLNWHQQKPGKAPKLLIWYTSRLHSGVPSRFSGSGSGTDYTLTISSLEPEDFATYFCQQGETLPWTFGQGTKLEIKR
4. C6 (antibody, human IgG1, kappa, L234A L235A, V domains shown, Humanized monoclonal antibody; also called anti-CD73 antibody C6) VH: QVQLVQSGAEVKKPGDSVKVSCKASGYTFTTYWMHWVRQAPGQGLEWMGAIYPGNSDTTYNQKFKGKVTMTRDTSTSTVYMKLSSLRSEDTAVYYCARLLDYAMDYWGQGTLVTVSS VL: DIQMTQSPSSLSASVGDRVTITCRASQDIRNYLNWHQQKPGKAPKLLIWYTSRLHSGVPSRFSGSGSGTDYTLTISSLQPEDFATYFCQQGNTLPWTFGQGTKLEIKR

Found:
1. 78
2. 82
3. 82
4. 81
